Assay: AP1 Signaling Pathway (AID 357);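 note: ME-180 reporter cells stimulated with EGF at its EC50 level; % is set by controls: 0 for no effect and ±100 for the full control effect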
Conditions: ME-180 AP-1-bla reporter, EGF-induced, beta-lactamase ratio, 5 h; at 7.69 µM (top of the series) unless noted
Records with an inconclusive call do not appear. Activity calls are given as the source filed them. Calls come from the whole dose curve; as a rule, active = well fitted curve in either direction with a large enough effect (not every such curve was filed as active); inconclusive = small, poorly fitted or top-dose-only effect, or another doubt; inactive = flat fitted curve, though single readings scatter.
# maps each entry to its activity change, negative = inhibition
readoutLabel: activity change, negative = inhibition

> print(dat)
                     compoundstructurestring                            readoutlabel                   observedvalue
 1                   O=C(O)CC1(C(=O)O)CCCCC1  activity change, negative = inhibition               -1.19% (inactive)
 2                     O=C(O)/C=C\c1cnc[nH]1  activity change, negative = inhibition     4.19% [at 38 µM] (inactive)
 3  O=c1[nH]c(SCc2ccccc2[N+](=O)[O-])nc2nc[nH]c12  activity change, negative = inhibition                9.58% (inactive)
 4           O=C(O)[C@H](CCc1ccccn1)c1ccccc1  activity change, negative = inhibition              -0.682% (inactive)
 5   CCN1CCc2c(C#N)c(NCc3ccccc3)nc(NCCO)c2C1  activity change, negative = inhibition  -9.55% [at 17.2 µM] (inactive)
 6              CC(=O)/C(=N\N=C(N)N)c1ccccc1  activity change, negative = inhibition                8.04% (inactive)
 7                         S=C(S)NCCN1CCNCC1  activity change, negative = inhibition               -1.68% (inactive)
 8            CC(C)(C)c1ccc(OCC(=O)O)c(Cl)c1  activity change, negative = inhibition               -2.54% (inactive)
 9             Cc1ccc(N2CCN(CCC(=O)O)CC2)cc1  activity change, negative = inhibition                4.25% (inactive)
10        O=C(O)c1cccc(SSc2cccc(C(=O)O)c2)c1  activity change, negative = inhibition               0.262% (inactive)
11              O=C(O)CSc1ncccc1[N+](=O)[O-]  activity change, negative = inhibition                6.57% (inactive)
12                       NC(N)=NNC(=O)C(=O)O  activity change, negative = inhibition                2.05% (inactive)
13  Cc1ccc2c(c1)N[C@H](c1ccc(C(=O)O)cc1)c1cccn1-2  activity change, negative = inhibition               -23.5% (inactive)

###

# maps each entry to its activity change, negative = inhibition
Assay: AP1 Signaling Pathway (AID 357);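 note: ME-180 reporter cells stimulated with EGF at its EC50 level; % is set by controls: 0 for no effect and ±100 for the full control effect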
Settings: ME-180 (cervical carcinoma) AP-1-bla reporter, EGF-induced, beta-lactamase ratio, 5 h; at 7.69 µM (top of the series) unless noted
Results filed as inconclusive are left out. Activity calls are given as the source filed them. The call rests on the fitted dose curve; in most records, active means well fitted curve in either direction with a large enough effect (not every such curve was filed as active); inconclusive means small, poorly fitted or top-dose-only effect, or another doubt; inactive means flat fitted curve, though single readings scatter.
readoutLabel: activity change, negative = inhibition

> print(dat)
                    compoundstructurestring                 observedvalue
1    O=C(O)[C@@H]1CCN(Cc2oc(CO)cc(=O)c2O)C1              6.76% (inactive)
2  C=C[C@@]1(C)CC(=O)[C@@]2(O)[C@@]3(C)[C@H](O)CCC(C)(C)[C@@H]3[C@H](O)[C@H](OC(C)=O)[C@]2(C)O1  -15.8% [at 38 µM] (inactive)
3  CN(C)CN1C(=O)S/C(=C2/C(=O)N(CN(C)C)c3ccccc32)C1=O             -4.12% (inactive)
4  CC(C)[C@@H]1O[C@H](/C=C\c2ccccc2)OCC1(C)C             -2.98% (inactive)
5      O=c1cc(N=Nc2ccc(O)cc2)[nH]c(=O)[nH]1             -6.46% (inactive)
